Provide the reported growth inhibition of each item.
test: NCI Yeast Anticancer Drug Screen. Data for the rad18 strain (AID 177); conditions: S. cerevisiae rad18 mutant growth inhibition; at 3.7 µM; hits give high values
This is part of a sample that, as a whole, favours compounds with a hit. Of some 79,000 tested, about 15% had one in any assay.
One number for each entry, in %.

[
  {
    "compound": "Cc1ccccc1NC(=O)c1c(C)oc2c1C(=O)c1ccccc1C2=O",
    "growth inhibition [%]": -24
  },
  {
    "compound": "CC(=O)/C=C/c1cc([N+](=O)[O-])ccc1O",
    "growth inhibition [%]": -47
  }
]

Please report growth inhibition for every entry that follows.
1. Nc1ccc(N=Nc2ccc(-c3ccc(O)cc3)cc2)c2ccc(S(=O)(=O)O)cc12
2. CN(C)CCNc1ccc2ncn3c4ccc(O)cc4c(=O)c1c23

Reply:
1. 11
2. -1

Quick batch: growth inhibition for everything below.
1. O=[N+]([O-])c1cccc2nc3ccccc3c(NCCCN3CCCCC3)c12
2. O=[N+]([O-])c1ccc(/C=C\c2ccc3c(c2)OCO3)c([N+](=O)[O-])c1
3. OC(CC(O)(C(F)(F)F)C(F)(F)F)c1ccc(C(O)CC(O)(C(F)(F)F)C(F)(F)F)cc1 (stereo unspecified)
4. CCN(CC)C(=S)SC(=S)N(CC)CC
5. O=C(NO)c1coc2ccccc2c1=O
6. Cc1cccc(/C=N/NC(=S)NC2CCCCC2)n1
7. Clc1ccc(/C(=C\c2ccccc2)Cn2ccnc2)cc1

Reply:
1: 95; 2: 6; 3: 41; 4: 6; 5: -3; 6: -4; 7: 64

Need growth inhibition for each of these compounds.
1. O=C(NCCCCN(CCCNC(=O)C(F)(F)F)Cc1ccccc1)C(F)(F)F
2. CCN(CC)CCNc1ccc2nc(C)n3c4ccc(O)cc4c(=O)c1c23
3. O=[N+]([O-])c1ccc2nc(=S)[nH]n2c1
4. COC(=O)C(=O)c1c(-c2ccc(Cl)c(Cl)c2)[nH]c2[nH]n(-c3ccccc3)c(=O)c2c1=O
5. CCN(CC)C(=S)N/N=C(\C)c1ccccc1O

Reply:
[12, 0, 0, -2, 9]
